- assay_name: Pharmacokinetic study of fixed-dose combinations of Formula I/Formula II/Formula III/Formula IV
- Type: in vivo
- recorded_conditions: in vivo; Dose B: 150 mg/150 mg/200 mg/300 mg; n = 42; mean (CV %)
experimental_readout: Cmax (ng/mL)
Write it as a number; the unit ng/mL goes unstated.

stdin: Tell me the measured Cmax of `CC(C)c1nc(CN(C)C(=O)N[C@@H](CCN2CCOCC2)C(=O)N[C@H](CC[C@H](Cc2ccccc2)NC(=O)OCc2cncs2)Cc2ccccc2)cs1` , please.
stdout: 1570

###

- assay_name: Pharmacokinetic dose-ranging study of the compound of Formula II
- Assay type: in vivo
- recorded_conditions: in vivo, 100 mg dose, n = 11, arithmetic mean
- Procedure: A pharmacokinetic dose-ranging study involving the compound of Formula II was conducted. Doses for the compound of Formula II for the dose-ranging study included 50 mg, 100 mg and 200 mg.
experimental_readout: Cmax
For clarity, give the value followed by its unit.

stdin: Tell me the measured Cmax of CC(C)c1nc(CN(C)C(=O)N[C@@H](CCN2CCOCC2)C(=O)N[C@H](CC[C@H](Cc2ccccc2)NC(=O)OCc2cncs2)Cc2ccccc2)cs1 [Formula II] , please.
stdout: 563 ng/mL

###

- assay_name: Pharmacokinetic study of fixed-dose combinations of Formula I/Formula II/Formula III/Formula IV
- Type: in vivo
- recorded_conditions: in vivo; Dose B: Formula I/II/III/IV 150 mg/150 mg/200 mg/300 mg; n = 42; mean (CV %)
experimental_readout: AUC

stdin: Tell me the measured AUC of `CC(C)c1nc(CN(C)C(=O)N[C@@H](CCN2CCOCC2)C(=O)N[C@H](CC[C@H](Cc2ccccc2)NC(=O)OCc2cncs2)Cc2ccccc2)cs1` , please.
stdout: 10400 ng·h/mL

// data source = patent US20150150810A1
